Target: FAAH (Mus musculus)
Construct: A fragment of liver, left lung lobe and brain without cerebellum were removed; from tissue; host or cells: male NMRI mice; brain (without cerebellum) and liver homogenates
Test: In vivo FAAH inhibition after oral dosing, remaining activity in liver homogenate (LVh, peripheral tissue)
Set-up: species or system NMRI mice
Details: liver homogenate, 30 mg/kg, 1 h
Below is a list of entries, each paired with its recorded In Vivo LVh 30 mg/kg 1 h, remaining FAAH activity value.

compound: CN(C(=O)n1cnc(-c2ccccc2)c1)c1ccccc1 [Compound 4]
reported-measurement: 10.6 % of control
--
compound: CN(C(=O)n1cnc(-c2cccc(O)c2)c1)c1ccccc1 [Compound 40]
reported-measurement: 4.5 % of control
--
compound: O=C(N1CCN(Cc2ccc3c(c2)OCO3)CC1)n1nnc2ccccc21.O=C(O)C(=O)O [Compound 48]
reported-measurement: 20.1 % of control
--
compound: O=C(N1CCC(Cc2ccccc2)CC1)n1cnc(-c2ccc(F)cc2F)n1 [Compound 79]
reported-measurement: 9.8 % of control

// moving on: another record for In Vivo LVh 30 mg/kg 1 h, remaining FAAH activity
Find the recorded In Vivo LVh 30 mg/kg 1 h, remaining FAAH activity belonging to O=C(N1CCN(c2ccccc2)CC1)n1nnc2ccccc21 [Compound 41] and report it.
30 % of control

---

Molecular target: FAAH (Mus musculus)
Construct: A fragment of liver, left lung lobe and brain without cerebellum were removed; from tissue; host or cells: male NMRI mice; brain (without cerebellum) and liver homogenates
Test: In vivo FAAH inhibition after oral dosing, remaining activity in brain homogenate (BRh, central nervous tissue)
Parameters: species or system NMRI mice
Conditions: brain homogenate, 3 mg/kg, 8 h
measurement-label: In Vivo BRh 3 mg/kg 8 h, remaining FAAH activity

Below are worked cases with known answers.
compound: CN(C(=O)n1cnc(-c2ccc(O)cc2)c1)C1CCCCC1 [Compound 261]
experimental-target: FAAH (Mus musculus)
reported-measurement: 1.2 % of control

compound: CN(C(=O)n1cnc(-c2cccc(O)c2)c1)c1ccccc1 [Compound 40]
experimental-target: FAAH (Mus musculus)
reported-measurement: 102.8 % of control

compound: COc1cc(-c2cn(C(=O)N3COCC3(C)C)cn2)ccc1O [Compound 228]
experimental-target: FAAH (Mus musculus)
reported-measurement: 56.4 % of control

compound: CN(C(=O)n1cnc(-c2cccc(-c3ccc(C(N)=O)cc3)c2)c1)C1CCCCC1 [Compound 245]
experimental-target: FAAH (Mus musculus)
reported-measurement: 90.6 % of control

compound: CC1(C)COCN1C(=O)n1cnc(-c2ccc(Oc3ccc(C(N)=O)cc3)cc2)n1 [Compound 187]
experimental-target: FAAH (Mus musculus)
reported-measurement: 85.6 % of control

Next item in the queue.
Field request: In Vivo BRh 3 mg/kg 8 h, remaining FAAH activity | item: CN(C(=O)n1cnc(-c2ccc(N)cc2)c1)c1ccccc1 [Compound 199]
45.9 % of control

---

Target: FAAH (Mus musculus, UniProt O08914)
Construct: A fragment of liver, left lung lobe and brain without cerebellum were removed; from tissue; host or cells: male NMRI mice; brain (without cerebellum) and liver homogenates
Sequence (O08914 1-579): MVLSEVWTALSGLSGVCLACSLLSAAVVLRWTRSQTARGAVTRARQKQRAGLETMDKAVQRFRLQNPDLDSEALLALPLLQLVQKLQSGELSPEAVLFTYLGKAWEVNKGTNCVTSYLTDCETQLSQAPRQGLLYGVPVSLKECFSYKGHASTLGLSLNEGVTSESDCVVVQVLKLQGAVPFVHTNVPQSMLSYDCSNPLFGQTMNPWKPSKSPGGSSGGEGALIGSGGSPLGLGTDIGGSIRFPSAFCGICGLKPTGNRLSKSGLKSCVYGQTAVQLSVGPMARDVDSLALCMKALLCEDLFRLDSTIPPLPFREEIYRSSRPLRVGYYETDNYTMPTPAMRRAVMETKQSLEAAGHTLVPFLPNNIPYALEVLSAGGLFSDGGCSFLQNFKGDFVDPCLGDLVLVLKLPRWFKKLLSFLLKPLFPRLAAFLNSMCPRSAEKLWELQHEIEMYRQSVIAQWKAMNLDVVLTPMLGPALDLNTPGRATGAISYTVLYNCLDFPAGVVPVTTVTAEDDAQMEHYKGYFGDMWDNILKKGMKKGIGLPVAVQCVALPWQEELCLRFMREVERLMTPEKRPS
Test: In vivo FAAH inhibition after oral dosing, remaining activity in brain homogenate (BRh, central nervous tissue)
Parameters: species or system NMRI mice
Conditions: brain homogenate, 30 mg/kg, 1 h
measurement-label: In Vivo BRh 30 mg/kg 1 h, remaining FAAH activity

molecule: CN(C(=O)n1nnc2ccc(Cl)cc21)c1ccccc1 [Compound 32]
reported-measurement: 85.9 % of control

molecule: CC1(C)COCN1C(=O)n1nnc2ccccc21 [Compound 71]
reported-measurement: 0.3 % of control

molecule: O=C(N1CCC2(CC1)OCCO2)n1nnc2ccccc21 [Compound 55]
reported-measurement: 2.2 % of control

molecule: O=C(N1CCOCC1)n1nnc2ccccc21 [Compound 19]
reported-measurement: 46.6 % of control

molecule: O=C(NCc1ccccc1)n1nnc2ccccc21 [Compound 61]
reported-measurement: 87.5 % of control

molecule: CN(C(=O)n1cnc(-c2ccc3ccccc3c2)c1)c1ccccc1 [Compound 14]
reported-measurement: 96.7 % of control

Please look up its In Vivo BRh 30 mg/kg 1 h, remaining FAAH activity: O=C(N1CCN(c2ccccn2)CC1)n1nnc2ccccc21 [Compound 49]
16.9 % of control

Also CN(C(=O)n1cnc(-c2ccc(F)cc2)c1)c1ccccc1 [Compound 29] , if possible.
10.7 % of control

Further, for CCCCN(C)C(=O)n1nnc2ccccc21 [Compound 75] ?
0.4 % of control

Next entry: O=C(N1CCN(Cc2ccc3c(c2)OCO3)CC1)n1nnc2ccccc21.O=C(O)C(=O)O [Compound 48]
21.8 % of control

Record: CN(C(=O)n1nnc2ccccc21)C1CCCCC1 [Compound 58]
0.3 % of control

Request: O=C(N1CCC(Cc2ccccc2)CC1)n1cnc(-c2ccc(F)cc2F)n1 [Compound 79]
10.3 % of control

---

Molecular target: FAAH (Mus musculus, UniProt O08914)
Construct: A fragment of liver, left lung lobe and brain without cerebellum were removed; from tissue; host or cells: male NMRI mice; brain (without cerebellum) and liver homogenates
Experiment: In vivo FAAH inhibition after oral dosing, remaining activity in liver homogenate (LVh, peripheral tissue)
Set-up: species or system NMRI mice
Conditions: liver homogenate, 3 mg/kg, 8 h
Procedure: The in vivo test was performed according to the protocol described below. BRh indicates inhibition in central nervous tissue and LVh indicates inhibition in peripheral tissue, in this case liver. […] Total protein in tissues was determined with the BioRad Protein Assay (BioRad) using a standard curve of BSA (50-250 μg/ml). […] The percentage of remaining enzymatic activity was calculated in respect to controls and after blank subtraction.
Listing: In Vivo LVh 3 mg/kg 8 h, remaining FAAH activity of selected compounds

// known answers, use as guide
compound: Cc1c(-c2ccccc2)ncn1C(=O)N1COCC1(C)C
experimental-target: FAAH (Mus musculus, UniProt O08914)
reported-measurement: 98.8 % of control
//
compound: CN(C(=O)n1cnc(-c2ccc(N)cc2)c1)c1ccccc1
experimental-target: FAAH (Mus musculus, UniProt O08914)
reported-measurement: 19.7 % of control
//
compound: CN1CCN(c2ccc(-c3ncn(C(=O)N4CCOCC4)n3)cc2)CC1
experimental-target: FAAH (Mus musculus, UniProt O08914)
reported-measurement: 105.7 % of control
//
compound: CN(Cc1ccccc1)C(=O)n1cnc(-c2ccc(F)cc2)c1
experimental-target: FAAH (Mus musculus, UniProt O08914)
reported-measurement: 3.8 % of control
//
compound: CC1(C)COCN1C(=O)n1cnc(-c2ccc(Cl)cc2)c1
experimental-target: FAAH (Mus musculus, UniProt O08914)
reported-measurement: 37.7 % of control
//
compound: CN(Cc1ccccc1)C(=O)n1cnc(-c2ccc(Oc3ccc(C(N)=O)cc3)cc2)n1
experimental-target: FAAH (Mus musculus, UniProt O08914)
reported-measurement: 65.8 % of control
//
compound: CC1(C)COCN1C(=O)n1cnc(-c2cccs2)n1
experimental-target: FAAH (Mus musculus, UniProt O08914)
reported-measurement: 6.9 % of control
//
compound: COc1ccc(OCCN(C)C(=O)n2nnc3ccccc32)cc1
experimental-target: FAAH (Mus musculus, UniProt O08914)
reported-measurement: 3.5 % of control

Given CC(C)N(Cc1ccccc1)C(=O)n1cnc(-c2ccccc2)c1 , state its recorded In Vivo LVh 3 mg/kg 8 h, remaining FAAH activity.
52.6 % of control

Here is the next compound: O=C(N1CCN(Cc2ccc(F)cc2)CC1)n1nnc2ccccc21
116.1 % of control

Try the compound CC1(C)COCN1C(=O)n1nnc2ccc(-c3cccc(C(N)=O)c3)cc21
2.4 % of control

Next compound up: COc1cccc(-c2cccc(-c3cn(C(=O)N(C)C4CCCCC4)cn3)c2)c1
39.5 % of control

Now this one: CN(C(=O)n1nnc2ccccc21)C1CCC2(CC1)OCC(C)(C)CO2
0.7 % of control

Please give the result for CN(C(=O)n1cnc(-c2ccc(C(N)=O)cc2)c1)c1ccccc1 too.
32.3 % of control

Would you mind doing C[C@@H]1CCC[C@H](C)N1C(=O)n1cnc(-c2ccccc2)c1 as well?
44.9 % of control

Recorded values, source patent US9353082B2.
